target: UniProt:Q06187; experiment: Btk in vitro inhibitory activity (one of Method A TR-FRET, Method B electrophoretic mobility shift, Method C radiometric filter binding); assay type: biochemical; conditions: read-out: Btk (IC50)
pIC50: −log10 of the molar value.
Result type: pIC50

Record `COc1ccc(C(=O)N[C@@H]2CCCN(c3cnc(C(N)=O)c(Nc4ccc(N5CCS(=O)(=O)CC5)cc4)n3)C2)cc1` . Reported pIC50: > 8.00

Record `NC(=O)c1ncc(N2CCC[C@@H](NC(=O)C3CC4(CCC4)C3)C2)nc1Nc1ccc(C2CCN(C3CC3)CC2)cc1` . Reported pIC50: 6.00 to 7.00

Record `CN(C)C(=O)N[C@@H]1CCCN(c2cnc(C(N)=O)c(Nc3ccc(C4(CN)CCCC4)cc3)n2)C1` . Reported pIC50: 7.00 to 8.00

Record `N#CCC(=O)N1CCC(c2ccc(Nc3nc(N4CCC[C@@H](NC(=O)N5CCCCC5)C4)cnc3C(N)=O)cc2)CC1` . Reported pIC50: > 8.00

Record `CN1CCCN([C@@H]2CCCN(c3cnc(C(N)=O)c(Nc4ccc(C5CCN(C6CC6)CC5)cc4)n3)C2)C1=O` . Reported pIC50: > 8.00

Record `COc1ccc(C(=O)N[C@@H]2CCCN(c3cnc(C(N)=O)c(Nc4ccc(C5CCNCC5)c(F)c4)n3)C2)cc1` . Reported pIC50: > 8.00

---
Record `CC1(c2ccc(Nc3nc(N4CCC[C@@H](N5CCN(C6CC6)C5=O)C4)cnc3C(N)=O)cc2)CCN(C2CC2)CC1` . Reported pIC50: > 8.00

###

Give measured pIC50 for each item. Keep answers brief.
biological target: BTK (Homo sapiens (Human), UniProt Q06187); test: Btk in vitro inhibitory activity (one of Method A TR-FRET, Method B electrophoretic mobility shift, Method C radiometric filter binding); format: biochemical; conditions: determined using one of the methods of Example 355a, 355b and 355c; read-out: BTK IC50
Sequence (Q06187 whole entry): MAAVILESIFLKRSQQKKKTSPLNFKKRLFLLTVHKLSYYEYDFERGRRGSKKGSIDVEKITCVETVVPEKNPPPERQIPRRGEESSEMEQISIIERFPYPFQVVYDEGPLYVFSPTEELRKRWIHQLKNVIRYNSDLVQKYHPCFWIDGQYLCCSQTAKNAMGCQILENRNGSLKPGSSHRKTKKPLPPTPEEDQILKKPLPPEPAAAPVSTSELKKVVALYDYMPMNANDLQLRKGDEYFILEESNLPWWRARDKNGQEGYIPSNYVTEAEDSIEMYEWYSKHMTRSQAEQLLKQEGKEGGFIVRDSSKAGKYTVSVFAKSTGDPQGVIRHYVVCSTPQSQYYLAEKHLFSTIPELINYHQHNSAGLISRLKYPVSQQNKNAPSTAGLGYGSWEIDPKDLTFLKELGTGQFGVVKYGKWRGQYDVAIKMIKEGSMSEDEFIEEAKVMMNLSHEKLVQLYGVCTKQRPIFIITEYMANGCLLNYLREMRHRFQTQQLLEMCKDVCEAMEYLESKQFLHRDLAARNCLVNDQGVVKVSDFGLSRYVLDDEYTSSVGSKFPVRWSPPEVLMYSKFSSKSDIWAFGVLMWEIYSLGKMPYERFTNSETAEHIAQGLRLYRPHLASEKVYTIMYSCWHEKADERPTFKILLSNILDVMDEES
pIC50: −log10 of the molar value.

Here are 5 molecules together with their reported answers.
Record `CN(C(=O)c1ccc(C(C)(C)C)cc1)[C@@H]1CCCN(c2nnc(C(N)=O)c(Nc3ccc(C(=O)N4CCOCC4)cc3)n2)C1` . Reported pIC50: 7.00 to 8.00

Record `COCCOc1ccc(Nc2nc(N3CCC[C@@H](NC(=O)N[C@@H](C)c4ccccc4)C3)cnc2C(N)=O)cc1` . Reported pIC50: 7.00 to 8.00

Record `COc1ccc(C(=O)N[C@@H]2CCCN(c3cnc(C(N)=O)c(Nc4ccc(C5CCOCC5)cc4)n3)C2)cc1` . Reported pIC50: > 8.00

Record `CN1CCN([C@@H]2CCCN(c3cnc(C(N)=O)c(Nc4ccc(C5(C)CCN(C(=O)C6CC6)CC5)cc4)n3)C2)C1=O` . Reported pIC50: > 8.00

Record `Cc1cc(Nc2cc(N3CCC[C@@H](NC(=O)c4ccc(C(C)(C)C)cc4)C3)cnc2C(N)=O)sn1` . Reported pIC50: 7.00 to 8.00

For every item below, please supply its pIC50.
1. CCOc1ccc(C(=O)N[C@@H]2CCCN(c3nnc(C(N)=O)c(Nc4ccc(C(=O)N5CCOCC5)cc4)n3)C2)cc1
2. C=CC(=O)N1CCC(c2ccc(Nc3nc(N4CCC[C@@H](NC(=O)N5CCCCC5)C4)nnc3C(N)=O)cc2)CC1
3. CN(C)C(=O)N1CCC[C@@H]2[C@H]1CCCN2c1cnc(C(N)=O)c(Nc2ccc(C3CCN(C4CCCC4)CC3)cc2)n1
4. NC(=O)c1nnc(N2CCC[C@@H](NC(=O)c3ccccc3)C2)nc1Nc1ccc(C(=O)N2CCOCC2)cc1
5. CN(C(=O)N[C@@H]1CCCN(c2cnc(C(N)=O)c(NC3CCCC3)n2)C1)c1ccccc1
6. CN(C)C(=O)N[C@@H]1CCCN(c2cnc(C(N)=O)c(Nc3ccc(C4CCN(C5CCOCC5)CC4)cc3)n2)C1
7. CN(C(=O)N[C@@H]1CCCN(c2cnc(C(N)=O)c(NC3CCOCC3)n2)C1)c1cc(Cl)cc(C(F)(F)F)c1
8. CN(C)C(=O)N(C)[C@@H]1CCCN(c2cnc(C(N)=O)c(Nc3ccc(C4CCN(C5CCCC5)CC4)cc3)n2)C1

Completion:
1. > 8.00
2. > 8.00
3. 7.00 to 8.00
4. > 8.00
5. 5.00 to 6.00
6. > 8.00
7. 5.00 to 6.00
8. > 8.00

For every item below, please supply its pIC50.
1. COc1ccc(C(=O)N[C@@H]2CCCN(c3cnc(C(N)=O)c(Nc4ccc(C5CCN(C(=O)CC#N)CC5)cc4)n3)C2)cc1
2. CN1CCN([C@@H]2CCCN(c3cnc(C(N)=O)c(Nc4ccc(C5(C#N)CCN(C6CCC6)CC5)cc4)n3)C2)C1=O
3. CN(C)C(=O)N[C@@H]1CCCN(c2cnc(C(N)=O)c(Nc3cnn(C4CC4)c3)n2)C1

Completion:
["> 8.00", "> 8.00", "7.00 to 8.00"]

For every item below, please supply its pIC50.
1. NC(=O)c1ncc(N2CCC[C@@H](N3CCN(C4CC4)C3=O)C2)nc1Nc1ccc(C2CCN(C3CCCC3)CC2)cc1
2. NC(=O)c1nnc(N2CCC[C@@H](NC(=O)N3CCOCC3)C2)nc1Nc1ccc(-c2ncco2)cc1

Completion:
1. > 8.00
2. 7.00 to 8.00

For every item below, please supply its pIC50.
1. NC(=O)c1nnc(N2CCC[C@@H](NC(=O)c3ccc(C(F)(F)F)cc3)C2)nc1Nc1ccc(C(=O)N2CCOCC2)cc1
2. CN(C(=O)N[C@@H]1CCCN(c2cnc(C(N)=O)c(Nc3ccc(F)cc3)n2)C1)c1cc(Cl)cc(C(F)(F)F)c1

Completion:
["> 8.00", "6.00 to 7.00"]

###

biological target: BTK (Homo sapiens (Human)); assay: Btk in vitro inhibitory activity (one of Method A TR-FRET, Method B electrophoretic mobility shift, Method C radiometric filter binding); type: biochemical; details: Btk (IC50)
Result type: IC50

Record `C[C@@H]1[C@H](N2CCCN(C)C2=O)CCCN1c1cnc(C(N)=O)c(Nc2ccc(C3CCN(C4CCCC4)CC3)cc2)n1` . Reported IC50: < 10 nM

Record `COc1ccc(C(=O)N[C@@H]2CCCN(c3cnc(C(N)=O)c(Nc4ccc(C5CCN(S(C)(=O)=O)CC5)cc4)n3)C2)cc1` . Reported IC50: 10 to 100 nM

Record `C[C@H]1[C@H](N)CCCN1c1cnc(C(N)=O)c(Nc2ccc(C3CCN(C4CCCC4)CC3)cc2)n1` . Reported IC50: 100 to 1000 nM

Record `CCC(=O)N1CCC(c2ccc(Nc3nc(N4CCC[C@@H](NC(=O)N5CCCCC5)C4)cnc3C(N)=O)cc2)CC1` . Reported IC50: 10 to 100 nM

Record `CCOc1ccc(C(=O)N[C@@H]2CCCN(c3nnc(C(N)=O)c(Nc4ccc(C#N)cc4)n3)C2)cc1` . Reported IC50: 100 to 1000 nM

Record `CN(C)CCOc1ccc(Nc2nc(N3CCC[C@@H](NC(=O)N(C)C)C3)cnc2C(N)=O)cc1` . Reported IC50: 10 to 100 nM

Then there is this molecule:
Record `CN(C)C(=O)N[C@@H]1CCCN(c2nnc(C(N)=O)c(Nc3ccc(C4CCN(C5CCCC5)CC4)cc3)n2)C1` . Reported IC50: < 10 nM

###

target: BTK (Homo sapiens (Human)); assay: Btk in vitro inhibitory activity (one of Method A TR-FRET, Method B electrophoretic mobility shift, Method C radiometric filter binding); type: biochemical; conditions: read-out: Btk (IC50)
pIC50: −log10 of the molar value.
Result type: pIC50

Here are 6 molecules together with their reported answers.
Sample COc1ccc(C(=O)N[C@@H]2CCCN(c3cnc(C(N)=O)c(Nc4ccc(C5CCNCC5)cc4F)n3)C2)cc1 [Example 162] , system: BTK (Homo sapiens (Human)). Its pIC50 is 7.00 to 8.00

Sample CN1CCC(c2ccc(Nc3nc(N4CCC[C@@H](NC(=O)c5ccc(F)cc5)C4)cnc3C(N)=O)cc2)CC1 [Example 168] , system: BTK (Homo sapiens (Human)). Its pIC50 is > 8.00

Sample NC(=O)c1ncc(N2CCC[C@@H](N3CCN(C4CC4)C3=O)C2)nc1Nc1ccc(C2CCN(C3CCC3)CC2)cc1 [Example 278] , system: BTK (Homo sapiens (Human)). Its pIC50 is > 8.00

Sample CC(=O)N1CCC(c2ccc(Nc3nc(N4CCC[C@@H](NC(=O)N5CCCCC5)C4)nnc3C(N)=O)cc2)CC1 [Example 338] , system: BTK (Homo sapiens (Human)). Its pIC50 is > 8.00

Sample NC(=O)c1ncc(N2CCC[C@@H]3[C@H]2CCN3C(=O)C2CC2)nc1Nc1ccc(C2CCN(C3CCCC3)CC2)cc1 (racemic) [Example 288] , system: BTK (Homo sapiens (Human)). Its pIC50 is 7.00 to 8.00

Sample NC(=O)c1ncc(N2CCC[C@@H](NC=O)C2)nc1Nc1ccc(C2CCN(C3CCCC3)CC2)cc1 [Example 295] , system: BTK (Homo sapiens (Human)). Its pIC50 is > 8.00

---
Sample NC(=O)c1nnc(N2CCC[C@@H](NC(=O)c3ccc(OCC(F)(F)F)cc3)C2)nc1Nc1ccc(C(=O)N2CCOCC2)cc1 [Example 86] , system: BTK (Homo sapiens (Human)). Its pIC50 is > 8.00
